PROTOCOL NOTES: Human HepG2 cell viability assay in 384 well format
Type: toxicity, cell-based
Parameters: dose 125 nL, time 70.5 hour; concentration not given beside the values
EXPERIMENTAL SETUP: HepG2 cells, read-out: Inhibition
RECORDED ENDPOINT: cytotoxicity at 70.5 h (%)
Give just the number in %; leave the unit off.

Here are 4 molecules together with their reported answers.
>  <CHEMICAL STRUCTURE>
O=C(N[C@@H]1CN(c2ncc(F)cn2)[C@@H]2COC[C@@H]21)c1cscn1

>  <READOUT VALUE>
-13.8

$$$$
>  <CHEMICAL STRUCTURE>
O=C1COC2(CCN(CC3CCOCC3)CC2)CN1Cc1ccccn1

>  <READOUT VALUE>
-0.458

$$$$
>  <CHEMICAL STRUCTURE>
Cc1noc(C)c1CN1C[C@@H](N(C)Cc2ccco2)[C@H]2OCCC[C@H]21

>  <READOUT VALUE>
-6.48

$$$$
>  <CHEMICAL STRUCTURE>
Cc1ccc(CNCc2c(C)nn(C)c2N(C)C)cn1

>  <READOUT VALUE>
-3.06

$$$$

Below: the item to evaluate.
Incoming: Could you tell me which cytotoxicity at 70.5 h is on file for `CCn1ncc(CN2CCC(c3ncc(Cl)cc3S(C)(=O)=O)CC2)c1C` ?
Outgoing: -8.43
